System: Mus musculus
Assay explanation: Toxicity in ICR mouse assessed as mortality administered as single dose at 200 mg/kg, iv after 7 days
Type: organism-based
Design: dose 200 mg/kg, route intravenous
Condition set: in vivo, 168 h
Measurement name: Activity

Q. Given NC1CCN(c2c(F)cc3c(=O)c(C(=O)O)cn(C4CC4)c3c2Cl)C1 (stereo unspecified) , state its recorded Activity.
A. Non-toxic

Q. Activity for `C[C@H]1CN(c2c(F)cc3c(=O)c(C(=O)O)cn4c3c2OC[C@@H]4C)C[C@@H]1CNC1CC1` ?
A. Toxic

Q. Can you share its Activity? I mean this compound: `C[C@H]1COc2c(N3CC[C@@H](CNC4CC4)C3)c(F)cc3c(=O)c(C(=O)O)cn1c23`
A. Toxic

Q. Returns the measured Activity for the input compound. Input: `O=C(O)c1cn2c3c(c(N4C[C@H](CNC5CC5)[C@H](F)C4)c(F)cc3c1=O)OC[C@@H]2CF`
A. Non-toxic

Q. What value of Activity has been recorded for this entry: `C[C@@H]1CN(c2c(F)cc3c(=O)c(C(=O)O)cn4c3c2OC[C@@H]4CF)C[C@@H]1CNC1CC1`
A. Toxic

Next:
Q. Field request: Activity | item: `C[C@H]1COc2c(N3C[C@H](CNC4CC4)[C@H](F)C3)c(F)cc3c(=O)c(C(=O)O)cn1c23`
A. Non-toxic

###

System: Mus musculus
Assay explanation: Toxicity in ICR mouse assessed as mortality administered as single dose at 100 mg/kg, iv after 7 days
Assay type: organism-based
Set-up: dose 100 mg/kg, route intravenous
Condition set: in vivo, 168 h
Measurement name: Activity

Q. Enter reported Activity observed with Mus musculus for `C[C@H]1COc2c(N3CC[C@@H](CNC4CC4)C3)c(F)cc3c(=O)c(C(=O)O)cn1c23`
A. Non-toxic

Q. Give recorded Activity with Mus musculus for the following compound: `C[C@H]1CN(c2c(F)cc3c(=O)c(C(=O)O)cn4c3c2OC[C@@H]4C)C[C@@H]1CNC1CC1`
A. Non-toxic

Q. Param readout= Activity; system= Mus musculus; entry= `C[C@@H]1CN(c2c(F)cc3c(=O)c(C(=O)O)cn4c3c2OC[C@@H]4C)C[C@@H]1CNC1CC1` ; returns value.
A. Toxic

Q. Record lookup: for Mus musculus, what Activity belongs to `C[C@H]1COc2c(N3C[C@H](CNC4CC4)[C@H](F)C3)c(F)cc3c(=O)c(C(=O)O)cn1c23` ?
A. Non-toxic

###

Test system: Haemophilus influenzae
Assay explanation: Antibacterial activity against Haemophilus influenzae IID983 after 18 hrs by agar dilution method
Format: functional
Measurement name: MIC (ng/mL)
Numbers only here, please. The scale is ng/mL.

Consider the worked cases shown below.
Q. Given the molecule `C[C@H]1COc2c(N3C[C@H](CNC4CC4)[C@H](F)C3)c(F)cc3c(=O)c(C(=O)O)cn1c23` , what is its reported MIC?
A. 4

Q. Query (molecule): `O=C(O)c1cn2c3c(c(N4C[C@H](CNC5CC5)[C@@H](F)C4)c(F)cc3c1=O)OC[C@@H]2CF` ; field requested: MIC
A. 8

Q. For `C[C@@H]1CN(c2c(F)cc3c(=O)c(C(=O)O)cn4c3c2OC[C@@H]4CF)C[C@@H]1CNC1CC1` , what is its reported MIC?
A. 4

More entries:
Q. Requested read-out: MIC. Entry: `O=C(O)c1cn(C2CC2)c2cc(N3CCNCC3)c(F)cc2c1=O`
A. 8

Q. Fill in: MIC of `C[C@H]1COc2c(N3CC[C@@H](CNC4CC4)C3)c(F)cc3c(=O)c(C(=O)O)cn1c23` is ___
A. 16

###

Tested on: Mus musculus
Assay explanation: Phototoxicity in orally dosed ICR mouse assessed as skin erythema after 72 hrs
Type: organism-based
Condition set: in vivo, po
Measurement name: Activity

Q. What does the data say about its Activity? Entry: `O=C(O)c1cn2c3c(c(N4C[C@H](CNC5CC5)[C@H](F)C4)c(F)cc3c1=O)OC[C@@H]2CF`
A. Non-toxic

Q. Looking for the measured Activity of NC1CCN(c2c(F)cc3c(=O)c(C(=O)O)cn(C4CC4)c3c2Cl)C1 (stereo not given) , can you help?
A. Toxic

Q. Activity lookup needed for `C[C@H]1CN(c2c(F)cc3c(=O)c(C(=O)O)cn4c3c2OC[C@@H]4CF)C[C@@H]1CNC1CC1` , thanks.
A. Non-toxic

Q. For `C[C@@H]1CN(c2c(F)cc3c(=O)c(C(=O)O)cn4c3c2OC[C@@H]4CF)C[C@@H]1CNC1CC1` , what is its reported Activity?
A. Non-toxic

Consider the additional compound presented here.
Q. # input compound: `O=C(O)c1cn2c3c(c(N4CC[C@@H](CNC5CC5)C4)c(F)cc3c1=O)OC[C@@H]2CF` ; wanted: its Activity
A. Non-toxic

###

Test system: Streptococcus pyogenes
Assay explanation: Antibacterial activity against Streptococcus pyogenes IID692 after 18 hrs by agar dilution method
Assay type: functional
Measurement name: MIC (µg/mL)
Report the value in µg/mL with no unit label.

Q. Given `C[C@@H]1CN(c2c(F)cc3c(=O)c(C(=O)O)cn4c3c2OC[C@@H]4CF)C[C@@H]1CNC1CC1` , state its recorded MIC.
A. 0.031

Q. Endpoint output: MIC of `C[C@H]1CN(c2c(F)cc3c(=O)c(C(=O)O)cn4c3c2OC[C@@H]4C)C[C@@H]1CNC1CC1` . Value?
A. 0.016

Q. For the compound shown here, `O=C(O)c1cn(C2CC2)c2cc(N3CCNCC3)c(F)cc2c1=O` , give the reported MIC.
A. 0.5

Q. Request the reported MIC associated with NC1CCN(c2c(F)cc3c(=O)c(C(=O)O)cn(C4CC4)c3c2Cl)C1 (centres undefined)
A. 0.063

Q. Look up MIC for this compound: `C[C@H]1COc2c(N3C[C@H](CNC4CC4)[C@H](F)C3)c(F)cc3c(=O)c(C(=O)O)cn1c23`
A. 0.031

Others:
Q. Quick one: MIC of `C[C@H]1COc2c(N3C[C@H](CNC4CC4)[C@@H](F)C3)c(F)cc3c(=O)c(C(=O)O)cn1c23` ?
A. 0.125

Q. Item `C[C@H]1CN(c2c(F)cc3c(=O)c(C(=O)O)cn4c3c2OC[C@@H]4CF)C[C@@H]1CNC1CC1` has what recorded MIC?
A. 0.031

Q. Any idea what its MIC is? The compound is `O=C(O)c1cn2c3c(c(N4C[C@H](CNC5CC5)[C@H](F)C4)c(F)cc3c1=O)OC[C@@H]2CF`
A. 0.031

Q. Which MIC reading was recorded for the compound `C[C@H]1COc2c(N3CC[C@@H](CNC4CC4)C3)c(F)cc3c(=O)c(C(=O)O)cn1c23` ?
A. 0.016

Q. Bench note: what MIC did `C[C@H]1COc2c(N3CCN(C)CC3)c(F)cc3c(=O)c(C(=O)O)cn1c23.C[C@H]1COc2c(N3CCN(C)CC3)c(F)cc3c(=O)c(C(=O)O)cn1c23.O` show?
A. 0.5

Q. Find the recorded MIC belonging to `O=C(O)c1cn2c3c(c(N4C[C@H](CNC5CC5)[C@@H](F)C4)c(F)cc3c1=O)OC[C@@H]2CF` and report it.
A. 0.125

Q. Requested field: MIC. Item: `O=C(O)c1cn2c3c(c(N4CC[C@@H](CNC5CC5)C4)c(F)cc3c1=O)OC[C@@H]2CF`
A. 0.031

Q. So what does the record say about MIC for `C[C@@H]1CN(c2c(F)cc3c(=O)c(C(=O)O)cn4c3c2OC[C@@H]4C)C[C@@H]1CNC1CC1` ?
A. 0.016

Q. Consider the compound CCNCC1CCN(c2c(F)cc3c(=O)c(C(=O)O)cn4c3c2OC[C@@H]4C)C1 (some centres undefined) and give its measured MIC.
A. 0.063

###

In this section we review reported MIC values for a set of compounds.
Tested on: Pseudomonas aeruginosa
Assay explanation: Antibacterial activity against Pseudomonas aeruginosa IID1210 after 18 hrs by agar dilution method
Format: functional
Field: numeric (µg/mL). Do not append units.

Q. Find MIC (Pseudomonas aeruginosa) for the entry `C[C@H]1COc2c(N3CCN(C)CC3)c(F)cc3c(=O)c(C(=O)O)cn1c23.C[C@H]1COc2c(N3CCN(C)CC3)c(F)cc3c(=O)c(C(=O)O)cn1c23.O`
A. 0.5

Q. Checklist item: MIC tested on Pseudomonas aeruginosa, entry `O=C(O)c1cn2c3c(c(N4C[C@H](CNC5CC5)[C@@H](F)C4)c(F)cc3c1=O)OC[C@@H]2CF` , value?
A. 4

Q. Checklist item: MIC tested on Pseudomonas aeruginosa, entry `C[C@H]1COc2c(N3C[C@H](CNC4CC4)[C@H](F)C3)c(F)cc3c(=O)c(C(=O)O)cn1c23` , value?
A. 2

Q. Checklist item: MIC tested on Pseudomonas aeruginosa, entry NC1CCN(c2c(F)cc3c(=O)c(C(=O)O)cn(C4CC4)c3c2Cl)C1 (stereo not given) , value?
A. 0.125

Q. Which MIC is reported with Pseudomonas aeruginosa for this entry: `C[C@H]1COc2c(N3CC[C@@H](CNC4CC4)C3)c(F)cc3c(=O)c(C(=O)O)cn1c23` ?
A. 2
